assay: Cell Viability - LYMP2-012 (AID 982); settings: LYMP2-012 lymphoblastoid cell viability qHTS; series mostly up to 92.2 µM;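 also: cellular ATP by luciferase luminescence where a drop means cytotoxicity; cells exposed to compound for one day before reading; nearly all actives have a fitted effect of over 55% in size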
Records with an inconclusive call do not appear. Activity calls are given as the source filed them. Calls follow the shape of the dose curve; as a rule, active = well fitted cell-killing curve with a large enough effect; inconclusive = small, poorly fitted or top-dose-only effect; inactive = flat fitted curve, though single readings scatter.
Reported Endpoint: outcome

The following compounds have reported results that may help.
Qu. Quick one: outcome of `Nc1ccc(S(N)(=O)=O)cc1` ?
Ans. inactive

Qu. Quick one: outcome of `c1ccc2[nH]c(-c3cscn3)nc2c1` ?
Ans. inactive

Qu. Quick one: outcome of `Cc1cc(O)c2c(c1)C(=O)c1cc(O)cc(O)c1C2=O` ?
Ans. inactive

Qu. Quick one: outcome of `NS(=O)(=O)c1cc(C(=O)O)c(NCc2ccco2)cc1Cl` ?
Ans. inactive

Qu. Quick one: outcome of `CCCc1cc(=O)[nH]c(=S)[nH]1` ?
Ans. inactive

Turning to the following compound.
Qu. Quick one: outcome of `CS(=O)(=O)OCCCCOS(C)(=O)=O` ?
Ans. inactive
